Measured IC50 of individual entries
Target: human SPPL2a (Homo sapiens, UniProt Q8TCT8)
Sequence (Q8TCT8 26-520): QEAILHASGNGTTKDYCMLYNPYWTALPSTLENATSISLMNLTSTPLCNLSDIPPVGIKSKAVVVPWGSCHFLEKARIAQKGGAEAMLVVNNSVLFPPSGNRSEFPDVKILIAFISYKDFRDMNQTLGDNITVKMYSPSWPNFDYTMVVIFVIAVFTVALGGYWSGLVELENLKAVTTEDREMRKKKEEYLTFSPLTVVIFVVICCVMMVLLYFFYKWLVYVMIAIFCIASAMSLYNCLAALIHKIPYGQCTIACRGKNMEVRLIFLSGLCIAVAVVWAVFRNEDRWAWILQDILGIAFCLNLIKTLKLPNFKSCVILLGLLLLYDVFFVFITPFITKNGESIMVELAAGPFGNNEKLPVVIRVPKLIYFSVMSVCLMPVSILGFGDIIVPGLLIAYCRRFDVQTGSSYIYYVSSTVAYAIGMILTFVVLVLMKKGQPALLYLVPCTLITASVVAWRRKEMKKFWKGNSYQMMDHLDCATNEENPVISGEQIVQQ
Assay: Sppl2a TL (translocation) imaging assay in U-2 OS cells
Format: cell-based
Set-up: expressed in transfected cells
Conditions: U-2 OS cells expressing human SPPL2a and EGFP-TNFα(aa1-76) NTF substrate; 24 h
Write it as a number; the unit nM goes unstated.

Worked cases, answers included:
-- ask State its IC50: CC[C@H](CNC(=O)c1scnc1C(F)(F)F)C(=O)N[C@@H]1C(=O)N2CC3(CC3)CN2C(=O)c2ccccc21 [Example 57]
-- reply 332

-- ask State its IC50: C[C@H](CC(=O)Nc1cc(C(=O)Nc2ccccc2F)nn1C)C(=O)N[C@@H]1C(=O)N2CCCN2Cc2ccccc21 [Example 109]
-- reply 2

-- ask State its IC50: CCCOc1nc(C)c(C(=O)NC[C@@H](CC)C(=O)N[C@@H]2C(=O)N3CCCN3Cc3ccccc32)s1 [Example 30]
-- reply 29

-- ask State its IC50: Cc1nc(C(=O)NC(C)C)sc1C(=O)NC[C@@H](C)C(=O)N[C@@H]1C(=O)N2CCCN2Cc2ccccc21 [Example 24]
-- reply 21

-- ask State its IC50: C[C@H](CC(=O)Nc1cc(-c2cc(C3CC3)no2)nn1C)C(=O)N[C@@H]1C(=O)N2CCCN2Cc2ccccc21 [Example 71]
-- reply 4

-- ask State its IC50: CC[C@H](CNC(=O)c1onc(C)c1C)C(=O)N[C@@H]1C(=O)N2CCCN2Cc2ccccc21 [Example 25]
-- reply 24

Would you kindly look at the next entry?
-- ask State its IC50: COCC[C@H](CNC(=O)c1sc(-c2cc(C)no2)nc1C)C(=O)N[C@@H]1C(=O)N2CCCN2Cc2ccccc21 [Example 42]
-- reply 62
